- Tested on: MDBK cells
- Procedure Text: Cytotoxicity in MDBK cells (MTT)
- Type: cell-based, Bos Taurus
- Condition Details: reference marked * (µM)
Parameter Measured: CC50

Fill in the blank: the reported CC50 of C[C@@]1(O)[C@H](O)[C@@H](CO)O[C@H]1n1cnc2c(=O)[nH]c(N)nc21 [NM 108] is ____.
> 100 µM

====

- Procedure Text: Cytotoxicity in MT-4 cells (MTT)
- Type: cell-based
- Condition Details: human
Parameter Measured: CC50 at 96 h (µM)
State just the number; it will be interpreted in µM.

Fill in the blank: the reported CC50 at 96 h of `O=C1Nc2ccc(Cl)cc2[C@@](C#CC2CC2)(C(F)(F)F)O1` is ____.
40
